EXPERIMENTAL_SYSTEM: unphosphorylated VEGF-R2Δ50 (FLVK) (Homo sapiens, UniProt P35968, DEL940-989/E990V)
Construct: VEGF-R2Δ50 contains residues 806-939 and 990-1171; made in house; host or cells: baculovirus/insect cell system
Sequence (P35968 with tags, fused parts or gaps DEL940-989/E990V limits assumed): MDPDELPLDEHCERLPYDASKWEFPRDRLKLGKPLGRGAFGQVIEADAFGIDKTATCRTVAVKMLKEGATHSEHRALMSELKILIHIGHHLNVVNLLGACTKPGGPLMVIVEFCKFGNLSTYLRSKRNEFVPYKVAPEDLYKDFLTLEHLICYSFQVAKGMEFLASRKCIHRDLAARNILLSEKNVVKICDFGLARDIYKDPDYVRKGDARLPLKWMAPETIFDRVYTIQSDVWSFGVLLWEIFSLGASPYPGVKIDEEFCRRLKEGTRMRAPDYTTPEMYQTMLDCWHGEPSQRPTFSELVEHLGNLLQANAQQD
TEST: VEGF-R2 coupled spectrophotometric assay, unphosphorylated construct (FLVK)
Type: biochemical
EXPERIMENTAL_SETUP: percent inhibition at 50 nM
Experimental: This construct determines the ability of a test compound to inhibit tyrosine kinase activity. […] The production of ADP from ATP that accompanies phosphoryl transfer was coupled to oxidation of NADH using phosphoenolpyruvate (PEP) and a system having pyruvate kinase (PK) and lactic dehydrogenase (LDH). The oxidation of NADH was monitored by following the decrease of absorbance at 340 nm ([…]=6.22 cm^−1 mM^−1) using a Beckman DU 650 spectrophotometer. […]
Label NOT MET if inhibition at 0.05 µM falls below 80%; label MET in every other case.

>  <COMPOUND>
Cc1cc2cc(Nc3ccnc4cc(-c5nccn5C)sc34)ccc2n1C(=O)NC(C)C [Example 2f]

>  <EXPERIMENTAL_SYSTEM>
unphosphorylated VEGF-R2Δ50 (FLVK) (Homo sapiens, UniProt P35968, DEL940-989/E990V)

>  <ASSIGNED_CATEGORY>
NOT MET

$$$$
>  <COMPOUND>
CNC(=O)n1c(C)cc2cc(Nc3cccc4cc(C(=O)N5C[C@H](O)C[C@H]5CO)sc34)ccc21 [Example 3i]

>  <EXPERIMENTAL_SYSTEM>
unphosphorylated VEGF-R2Δ50 (FLVK) (Homo sapiens, UniProt P35968, DEL940-989/E990V)

>  <ASSIGNED_CATEGORY>
NOT MET

$$$$
>  <COMPOUND>
CO[C@@H]1CCN(C(=O)c2cc3nccc(Oc4ccc5c(c4)cc(C)n5C(=O)NCC#CC4CC4)c3s2)C1 [Example 4m]

>  <EXPERIMENTAL_SYSTEM>
unphosphorylated VEGF-R2Δ50 (FLVK) (Homo sapiens, UniProt P35968, DEL940-989/E990V)

>  <ASSIGNED_CATEGORY>
MET

$$$$
>  <COMPOUND>
CNC(=O)n1c(C)cc2cc(Oc3ccnc4cc(C(=O)N5CC[C@H](O)C5)sc34)ccc21 [Example 9g]

>  <EXPERIMENTAL_SYSTEM>
unphosphorylated VEGF-R2Δ50 (FLVK) (Homo sapiens, UniProt P35968, DEL940-989/E990V)

>  <ASSIGNED_CATEGORY>
MET

$$$$
>  <COMPOUND>
Cc1c(Cl)c2c(F)c(Oc3ccnc4cc(C(=O)N5CC[C@H](O)C5)sc34)ccc2n1C(=O)NC1CC1 [Example 6f]

>  <EXPERIMENTAL_SYSTEM>
unphosphorylated VEGF-R2Δ50 (FLVK) (Homo sapiens, UniProt P35968, DEL940-989/E990V)

>  <ASSIGNED_CATEGORY>
MET

$$$$
